test name: Ultraviolet induced erythema in guinea pigs
Type: in vivo, Albino guinea pigs
applied conditions: oral 125 mg./kg., 1 hour; maximum 3.0
quantity kind: Erythema Score (avg.)
Just the number.

# example entries with known answers
The molecule `CC(=O)Oc1ccccc1C(=O)O` showed Erythema Score (avg.) equal to 0.1

The molecule `CCCCC1C(=O)N(c2ccccc2)N(c2ccccc2)C1=O` showed Erythema Score (avg.) equal to 0.1

The molecule `COc1ccc2c(c1)c(CC(=O)O)c(C)n2C(=O)c1ccc(Cl)cc1` showed Erythema Score (avg.) equal to 0

Let's switch to this molecule now.
The molecule C/C(O)=C(\C#N)C(=O)c1ccccc1 [Cis-2-benzoyl-3-hydroxy-crotononitrile, Cis-2-benzoyl-3-hydroxycrotononitrile] showed Erythema Score (avg.) equal to 0

Value source: patent US4170656A
